Biological target: T1, HCV Core1-169 (HCV-1, UniProt P26664 1-169)
T1 construct: also called Solid Phase HCV Core
T1 sequence: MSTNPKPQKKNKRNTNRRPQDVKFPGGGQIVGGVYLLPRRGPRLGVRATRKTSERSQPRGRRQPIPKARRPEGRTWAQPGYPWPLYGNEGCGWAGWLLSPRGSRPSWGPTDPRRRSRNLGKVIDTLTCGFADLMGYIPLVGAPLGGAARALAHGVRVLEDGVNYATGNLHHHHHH
Test: sandwich EIA, capture 208A-293
Overview of reported OD492 across a group of binders:

binder | displayUnit | OD492
HCV 208A-557 (antibody, V domains shown) VH: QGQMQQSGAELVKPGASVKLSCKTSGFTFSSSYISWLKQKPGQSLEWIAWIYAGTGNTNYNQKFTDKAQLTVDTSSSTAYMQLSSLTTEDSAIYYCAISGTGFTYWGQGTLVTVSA VL: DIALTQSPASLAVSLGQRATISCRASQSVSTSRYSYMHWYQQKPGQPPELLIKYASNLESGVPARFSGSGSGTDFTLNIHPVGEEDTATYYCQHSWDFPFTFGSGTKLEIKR | OD | 0.41
HCV 208B-1096 (antibody, V domains shown) VH: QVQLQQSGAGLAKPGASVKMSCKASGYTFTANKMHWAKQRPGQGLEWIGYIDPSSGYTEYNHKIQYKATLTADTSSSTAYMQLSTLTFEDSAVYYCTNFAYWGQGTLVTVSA VL: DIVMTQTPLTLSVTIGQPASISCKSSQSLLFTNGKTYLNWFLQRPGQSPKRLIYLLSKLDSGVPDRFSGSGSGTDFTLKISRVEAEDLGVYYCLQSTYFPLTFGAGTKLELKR | OD | 0.24
HCV 208A-692 (antibody, V domains shown) VH: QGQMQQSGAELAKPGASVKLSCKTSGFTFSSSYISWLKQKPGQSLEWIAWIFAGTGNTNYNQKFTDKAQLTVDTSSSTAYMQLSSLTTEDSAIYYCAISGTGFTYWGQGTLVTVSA VL: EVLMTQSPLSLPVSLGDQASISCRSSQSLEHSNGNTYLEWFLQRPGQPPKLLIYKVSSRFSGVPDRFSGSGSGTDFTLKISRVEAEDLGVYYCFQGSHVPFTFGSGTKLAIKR | OD | 0.51
HCV 208A-293 (antibody, V domains shown) VH: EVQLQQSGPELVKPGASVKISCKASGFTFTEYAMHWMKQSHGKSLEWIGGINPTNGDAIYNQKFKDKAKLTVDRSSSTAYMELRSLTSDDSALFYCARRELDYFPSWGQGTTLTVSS VL: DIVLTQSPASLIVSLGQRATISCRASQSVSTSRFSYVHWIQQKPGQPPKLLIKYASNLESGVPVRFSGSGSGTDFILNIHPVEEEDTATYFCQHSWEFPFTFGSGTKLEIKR | OD | 0.49
HCV 208B-395 (antibody, V domains shown) VH: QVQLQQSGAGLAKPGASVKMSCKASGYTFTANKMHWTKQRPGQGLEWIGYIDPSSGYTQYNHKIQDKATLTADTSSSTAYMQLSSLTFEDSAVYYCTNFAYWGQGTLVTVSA VL: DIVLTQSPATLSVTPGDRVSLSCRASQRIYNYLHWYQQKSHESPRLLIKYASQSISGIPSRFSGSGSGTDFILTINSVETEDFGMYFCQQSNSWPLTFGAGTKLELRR | OD | 0.26
